# Tested on: Escherichia coli (ATCC 35210)
# protocolDescription: Antibacterial microdilution (MIC/MBC)
# Assay type: cell-based
# conditionInfo: Escherichia coli, ATCC35210; E. coli; read-out: MIC
Collected MIC values appear next to each entry.
# answer = value followed by unit

Answered examples (2):
- compound: "COC(=O)c1[nH]c2ccc(F)cc2c1/C=C1\\SC(=S)N(CCC(=O)O)C1=O [Compound 14]"
  MIC: "45 µg/mL"
- compound: "COC(=O)c1[nH]c2ccc(F)cc2c1/C=C1\\SC(=S)N(N2CCOCC2)C1=O [Compound 16]"
  MIC: "30 µg/mL"

Now let's try a different one.
Lookup: Would you please give the reported MIC of COC(=O)c1[nH]c2ccccc2c1/C=C1\SC(=S)N(CCCCCC(=O)O)C1=O [Compound 1] with Escherichia coli (ATCC 35210)?
Found: 15 µg/mL
